- ASSAY TARGET: T1, HLA-DR7 (HLA-DRB1*07:01) (human)
- T1 construct: mature; purified from homozygous EBV-transformed lymphoblastoid cells with antibody L243
- PROCEDURE TEXT: competition ELISA vs biotin-YKL
No end group written: not given here.
Output: class label from relative affinity. Mapping: lower level = under 3, middle level = from 3 up to 50, upper level = 50 and over

Here's what some known entries look like.
binder="LPVMQHLAKNVVMVN-NH2 [CCNB1 377-391]" cat="middle level"
binder="MEMKILRALNFGLGR-NH2 [CCNB1 285-299]" cat="lower level"
binder="LHFLRRASKIGEVDV-NH2 [CCNB1 303-317]" cat="upper level"
binder="NSALVQDLAKAVAKV-NH2 [CCNB1 419-433]" cat="upper level"
binder="VDVEQHTLAKYLMEL-NH2 [CCNB1 315-329]" cat="middle level"
binder="PQLNSALVQDLAKAV-NH2 [CCNB1 416-430]" cat="middle level"
binder="HTLAKYLMELTMLDY-NH2 [CCNB1 320-334]" cat="middle level"
binder="MALRVTRNSKINAEN-NH2 [CCNB1 1-15]" cat="lower level"
binder="HQIRQMEMKILRALN-NH2 [CCNB1 280-294]" cat="upper level"

Continue with the next binder.
Query: Entry AKYLMELTMLDYDMV-NH2 [CCNB1 323-337] belongs to which category?
Result: middle level
